- Species: Rattus norvegicus
- PROTOCOL SUMMARY: DrugMatrix - Regimen: Daily Repeat
- Assay type: toxicity, organism-based, Sprague-Dawley
- Design: regimen Daily Repeat, gender Male, age 6-8 weeks
- CONDITION SET: in vivo, po, 0 mg/kg, 72 h, tissue Plasma, route oral GAVAGE, dose level Control, time 3 day, vehicle 100 % WATER
MEASURE: GLUCOSE (mg/dL)
Provide only the numeric value, understood in mg/dL.

stdin: Could you tell me which GLUCOSE is on file for CCN(CC)C(=S)SSC(=S)N(CC)CC ?
stdout: 154.5

stdin: CC(Cl)(Cl)Cl ?
stdout: 173.83

stdin: How about this compound: CN1C(=O)OC(C)(C)C1=O
stdout: 175

stdin: What do we get for Cc1cc(C(C)(C)C)c(O)c(C)c1CC1=NCCN1 ?
stdout: 169.33

stdin: Try this compound too: C[N+](C)(C)CCOC(N)=O.[Cl-]
stdout: 135.67

====

- Organism: Rattus norvegicus
- PROTOCOL SUMMARY: DrugMatrix - Regimen: Daily Repeat
- Format: toxicity, organism-based, Sprague-Dawley
- Parameters: regimen Daily Repeat, gender Male, age 6-8 weeks
- CONDITION SET: in vivo, po, 0 mg/kg, 72 h, tissue Plasma, route oral GAVAGE, dose level Control, time 3 day, vehicle .5 % CMC
MEASURE: SODIUM (MEQ/L)
Express your answer in MEQ/L, writing the number without its unit.

stdin: Reported SODIUM for NC(=O)NC(=O)Cc1ccccc1 [PHENACEMIDE] : what is it?
stdout: 142.45

stdin: Cool, now CC(=O)Nc1ccc2c(c1)Cc1ccccc1-2
stdout: 141.02

stdin: Further, for NC(=O)CN1CCCC1=O ?
stdout: 141.65

stdin: Can you handle NCC(CC(=O)O)c1ccc(Cl)cc1 (centres undefined) next?
stdout: 141.02

stdin: Consider next the compound O=C1c2ccccc2C(=O)C1c1ccccc1 in the same way.
stdout: 140.33

stdin: Repeat for the following compound: CCOc1cc(N)c(Cl)cc1C(=O)NCC1CN(Cc2ccc(F)cc2)CCO1 (centres undefined) [MOSAPRIDE]
stdout: 141.02

stdin: Proceed to Cl.NC[C@H]1CC[C@H](C(=O)Oc2ccc(CCC(=O)O)cc2)CC1 [CETRAXATE HYDROCHLORIDE]
stdout: 143.72

stdin: Item: COc1ccc(Cl)cc1C(=O)NCCc1ccc(S(=O)(=O)NC(=O)NC2CCCCC2)cc1 [GLYBURIDE]
stdout: 143.5

stdin: Entry CC(C)Cc1ccc([C@H](C)C(=O)O)cc1 please
stdout: 148

====

- Species on record: Rattus norvegicus
- PROTOCOL SUMMARY: DrugMatrix - Regimen: Daily Repeat
- Type: toxicity, organism-based, Sprague-Dawley
- Set-up: regimen Daily Repeat, gender Male, age 6-8 weeks
- CONDITION SET: in vivo, po, 0 mg/kg, 72 h, tissue Plasma, route oral GAVAGE, dose level Control, time 3 day, vehicle 100 % WATER
MEASURE: ALKALINE PHOSPHATASE
Could you give the number and then its unit, please?

stdin: What measured ALKALINE PHOSPHATASE goes with CC(Cl)(Cl)Cl ?
stdout: 395 u/L

stdin: One more molecule: C1CCN2C[C@@H]3C[C@@H](CN4CCCC[C@@H]34)[C@H]2C1
stdout: 395 u/L

stdin: Can you check CN1C(=O)OC(C)(C)C1=O next?
stdout: 399.83 u/L
